# TEST PROTOCOL: Water solubility assay
# Type: physicochemical
# EXPERIMENTAL PARAMETERS: read-out: Water solubility, Content
VALUE KIND: solubility (µg/mL)
Answers are plain numbers, in µg/mL.

Solved entries (count: 2):
In one line, give reported solubility of the entry `CC(CO)(CO)C(=O)Oc1ccc(/C=C/c2cc(O)cc(OC(=O)C(C)(CO)CO)c2)cc1` .
136

In one line, give reported solubility of the entry Oc1ccc(/C=C/c2cc(O)cc(O)c2)cc1 [Resveratrol, 3,5,4′-trihydroxy-trans-stilbene, reference compound] .
107

Kindly consider the entry below.
In one line, give reported solubility of the entry COc1cc(/C=C/c2ccc(O)cc2)cc(OC)c1 [Pterostilbene, reference compound] .
48

* * *

# TEST PROTOCOL: Water solubility assay
# Format: physicochemical
# EXPERIMENTAL PARAMETERS: read-out: Water solubility, Content
Exercise: for every item that follows, state its recorded solubility.
Numbers only, in mg/mL.

In one line, give reported solubility of the entry `COc1ccc(/C=C/c2cc(OC)cc(OC(=O)C(C)(CO)CO)c2)cc1` .
0.0534

Please look at the items below and tell me solubility for each one, in order.
1. COc1cc(/C=C/c2ccc(OC(=O)C(C)(CO)CO)cc2)cc(OC(C)=O)c1
2. CC(=O)Oc1cc(/C=C/c2ccc(OC(=O)C(C)(CO)CO)cc2)cc(OC(C)=O)c1
3. CC(CO)(CO)C(=O)Oc1cc(O)cc(/C=C/c2ccc(O)cc2)c1

1: 0.0819; 2: 0.306; 3: 0.41

* * *

Exercise: for every item that follows, state its recorded IC50.
# Tested on: Hep3B cells
# TEST PROTOCOL: MTT assay, antiproliferation on Hep3B cells
# Format: cell-based
# EXPERIMENTAL PARAMETERS: Homo sapiens; Hep3B cells, MTT, 72 hours; read-out: Hep 3B (IC50 (μM)) 72 hours
One number for each entry, in µM.

Solved entries (count: 2):
In one line, give reported IC50 of the entry COc1cc(/C=C/c2ccc(OC(=O)C3OC(C)(C)OC3C3COC(C)(C)O3)cc2)cc(OC)c1 [Compound 14-5, Pterostilbene D-Ribonic Acid Diacetonide] .
59.5

In one line, give reported IC50 of the entry CC(CO)(CO)C(=O)Oc1ccc(/C=C/c2cc(OC(=O)C(C)(CO)CO)cc(OC(=O)C(C)(CO)CO)c2)cc1 [Compound 4-3] .
95

Kindly consider the entry below.
In one line, give reported IC50 of the entry CC(CO)(CO)C(=O)Oc1cc(/C=C/c2ccc(O)cc2)cc(OC(=O)C(C)(CO)CO)c1 [Compound 6-3] .
55.3

* * *

# System: Hep3B cells
# TEST PROTOCOL: MTT assay, antiproliferation on Hep3B cells
# Assay type: cell-based
# EXPERIMENTAL PARAMETERS: Homo sapiens; Hep3B cells, MTT, 72 hours; read-out: Hep 3B (IC50 (μM)) 72 hours
VALUE KIND: IC50 (µM)
Give bare numbers, in µM.

In one line, give reported IC50 of the entry `COc1ccc(/C=C/c2cc(OC)cc(OC(=O)C(C)(CO)CO)c2)cc1` .
48.7

In one line, give reported IC50 of the entry `CC(CO)(CO)C(=O)Oc1ccc(/C=C/c2cc(O)cc(O)c2)cc1` .
47.8

In one line, give reported IC50 of the entry `CC(=O)Oc1cc(/C=C/c2ccc(OC(=O)C(C)(CO)CO)cc2)cc(OC(C)=O)c1` .
62

Kindly consider the entry below.
In one line, give reported IC50 of the entry `CC(CO)(CO)C(=O)Oc1ccc(/C=C/c2cc(O)cc(OC(=O)C(C)(CO)CO)c2)cc1` .
36.8

This collection of values is drawn from patent US9266813B2.
